- target under test: Cholinesterase (Homo sapiens, UniProt P06276)
- Sequence (P06276 whole entry): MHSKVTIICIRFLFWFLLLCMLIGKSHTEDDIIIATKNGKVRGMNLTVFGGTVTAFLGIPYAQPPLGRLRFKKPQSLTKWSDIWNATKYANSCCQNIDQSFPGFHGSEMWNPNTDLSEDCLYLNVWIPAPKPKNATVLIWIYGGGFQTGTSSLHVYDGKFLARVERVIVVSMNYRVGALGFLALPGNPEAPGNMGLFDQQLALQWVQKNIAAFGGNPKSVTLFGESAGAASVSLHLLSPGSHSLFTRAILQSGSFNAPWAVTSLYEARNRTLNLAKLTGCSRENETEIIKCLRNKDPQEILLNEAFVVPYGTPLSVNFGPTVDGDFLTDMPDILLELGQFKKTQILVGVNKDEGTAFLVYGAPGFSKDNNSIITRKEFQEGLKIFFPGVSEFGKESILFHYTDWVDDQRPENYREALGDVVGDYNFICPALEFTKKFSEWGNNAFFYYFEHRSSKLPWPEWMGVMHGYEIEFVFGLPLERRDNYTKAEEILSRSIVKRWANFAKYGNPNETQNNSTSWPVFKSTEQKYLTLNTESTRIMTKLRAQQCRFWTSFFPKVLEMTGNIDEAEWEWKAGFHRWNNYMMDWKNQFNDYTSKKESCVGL
quantity name: IC50
Number first, unit second: that is the form wanted.

[in] Let me know recorded IC50 for C=C(C)[C@H](CC=C(C)C)Cc1c(O)cc(OC)c2c1O[C@H](c1ccc(O)cc1O)CC2=O , thanks.
[out] 5.29 µM

====

- target under test: D(4) dopamine receptor (Homo sapiens, UniProt P21917)
- Sequence (P21917 whole entry): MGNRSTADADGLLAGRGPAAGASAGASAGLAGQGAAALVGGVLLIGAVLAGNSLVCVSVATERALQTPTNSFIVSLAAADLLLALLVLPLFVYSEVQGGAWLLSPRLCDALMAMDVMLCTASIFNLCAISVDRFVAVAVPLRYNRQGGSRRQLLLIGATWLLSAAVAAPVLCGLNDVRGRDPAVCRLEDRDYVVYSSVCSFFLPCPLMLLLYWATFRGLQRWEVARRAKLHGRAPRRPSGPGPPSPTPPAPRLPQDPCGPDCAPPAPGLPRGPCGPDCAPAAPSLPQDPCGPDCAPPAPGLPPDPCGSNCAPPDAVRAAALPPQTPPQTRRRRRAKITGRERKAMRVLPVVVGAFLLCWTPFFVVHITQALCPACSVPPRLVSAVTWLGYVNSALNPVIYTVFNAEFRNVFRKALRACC
quantity name: Ki (nM)
Just the number please, in nM, no unit attached.

[in] # assay system D(4) dopamine receptor (Homo sapiens, UniProt P21917): give Ki of COc1cc2c(cc1O)[C@@H]1Cc3ccc(O)c(OC)c3CN1CC2
[out] 1450

[in] # assay system D(4) dopamine receptor (Homo sapiens, UniProt P21917): give Ki of OCCN1CCN(CCCN2c3ccccc3Sc3ccc(C(F)(F)F)cc32)CC1
[out] 130
